- System: Key Broadleaf Weed and Crop Species
- assay_explanation: Post-Emergent Test II: postemergent herbicidal activity, visual rating after 14 d (Table 7)
- Type: in vivo
- condition_summary: post-emergence, 336 h, wild poinsettia (Euphorbia heterophylla), 35 g ai/ha, read-out: Visual Growth Reduction (%) 14 Days After Application EPHHL
measured_parameter: pest or weed control at 35 g/ha

The following molecules have reported results that may help.
1. COC(=O)c1nc(-c2ccc3c(c2)OC(F)(F)O3)c(F)c(N)c1Cl	85 to 94%
2. COC(=O)c1nc(-c2ccc3c(c2OC)OC(F)(F)O3)cc(N)c1Cl	0 to 29%
3. COC(=O)c1nc(-c2cc3c(cc2F)OC(F)(F)O3)cc(N)c1Cl	0 to 29%
4. C=Cc1c(C(=O)O)nc(-c2cc3c(cc2F)OC(F)(F)O3)c(F)c1N	95 to 100%

Now examine the next entry.
Prompt: Name the recorded pest or weed control at 35 g/ha for Nc1c(Cl)c(C(=O)O)nc(-c2cc3c(cc2F)OC(F)(F)O3)c1Cl .
Completion: 0 to 29%
